# target_of_assay: hPTPRM (Homo sapiens, UniProt P28827)
# Construct: Recombinant proteins corresponding to the entire intracellular regions (ICRs) of PTPRZ1, PTPRA, and PTPRM
# Sequence (P28827 765-1452 limits assumed): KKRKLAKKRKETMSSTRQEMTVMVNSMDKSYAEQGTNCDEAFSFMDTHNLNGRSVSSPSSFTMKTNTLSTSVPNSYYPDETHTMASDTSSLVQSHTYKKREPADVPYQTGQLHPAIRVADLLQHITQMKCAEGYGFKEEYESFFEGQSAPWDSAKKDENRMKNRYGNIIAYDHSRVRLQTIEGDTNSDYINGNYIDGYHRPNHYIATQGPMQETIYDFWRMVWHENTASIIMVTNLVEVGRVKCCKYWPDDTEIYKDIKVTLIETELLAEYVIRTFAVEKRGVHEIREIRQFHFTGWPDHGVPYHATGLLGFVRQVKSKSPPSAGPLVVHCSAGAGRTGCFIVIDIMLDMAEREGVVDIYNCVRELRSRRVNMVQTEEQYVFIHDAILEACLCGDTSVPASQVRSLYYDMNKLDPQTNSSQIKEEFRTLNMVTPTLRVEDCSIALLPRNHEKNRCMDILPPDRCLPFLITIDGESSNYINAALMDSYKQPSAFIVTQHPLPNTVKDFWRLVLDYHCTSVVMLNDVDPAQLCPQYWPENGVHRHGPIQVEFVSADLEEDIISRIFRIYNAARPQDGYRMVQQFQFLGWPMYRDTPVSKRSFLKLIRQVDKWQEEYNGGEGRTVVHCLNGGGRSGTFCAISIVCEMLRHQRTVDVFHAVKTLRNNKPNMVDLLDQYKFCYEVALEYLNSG
# measurement_notes: In vitro PTPase assay (DiFMUP), PTPRM
# settings: 60-min preincubation
quantity_measured: IC50 (µM)
Numbers only, in µM.

Incoming: What value of IC50 has been recorded for this entry: CCOc1ccc(C(F)(F)F)cc1CSc1ccsc1C(=O)NS(=O)(=O)c1ccccc1 [NAZ2329]
Outgoing: 56.7

====

# target_of_assay: hPTPN6 (Homo sapiens, UniProt P29350)
# Construct: the catalytic domains of PTPN1 and PTPN6 were expressed as glutathione-S-transferase (GST) fusion proteins; GST (N)
# Sequence (P29350 244-515 limits assumed): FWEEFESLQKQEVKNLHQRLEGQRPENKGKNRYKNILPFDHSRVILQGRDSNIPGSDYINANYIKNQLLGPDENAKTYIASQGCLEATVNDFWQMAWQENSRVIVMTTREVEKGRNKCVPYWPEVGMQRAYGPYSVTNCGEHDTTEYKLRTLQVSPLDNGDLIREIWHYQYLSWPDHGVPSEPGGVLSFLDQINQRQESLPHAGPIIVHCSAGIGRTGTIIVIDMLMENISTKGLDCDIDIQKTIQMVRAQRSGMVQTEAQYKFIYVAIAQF
# measurement_notes: In vitro PTPase assay (DiFMUP), PTPN6
# settings: 60-min preincubation
quantity_measured: IC50 (µM)
Answers are plain numbers, in µM.

Incoming: What value of IC50 has been recorded for this entry: CCOc1ccc(C(F)(F)F)cc1CSc1ccsc1C(=O)NS(=O)(=O)c1ccccc1
Outgoing: 15.2

====

# target_of_assay: hPTPRA (Homo sapiens, UniProt P18433)
# Construct: Recombinant proteins corresponding to the entire intracellular regions (ICRs) of PTPRZ1, PTPRA, and PTPRM
# measurement_notes: In vitro PTPase assay (DiFMUP), PTPRA
# settings: 60-min preincubation
quantity_measured: IC50 (µM)
One number for each entry, in µM.

Incoming: What value of IC50 has been recorded for this entry: CCOc1ccc(C(F)(F)F)cc1CSc1ccsc1C(=O)NS(=O)(=O)c1ccccc1 [NAZ2329]
Outgoing: 35.7

====

# target_of_assay: human PTPRZ1 (whole intracellular region, D1+D2) (Homo sapiens, UniProt P23471)
# Construct: Recombinant proteins corresponding to the entire intracellular regions (ICRs) of PTPRZ1, PTPRA, and PTPRM
# Sequence (P23471 1663-2315 limits assumed): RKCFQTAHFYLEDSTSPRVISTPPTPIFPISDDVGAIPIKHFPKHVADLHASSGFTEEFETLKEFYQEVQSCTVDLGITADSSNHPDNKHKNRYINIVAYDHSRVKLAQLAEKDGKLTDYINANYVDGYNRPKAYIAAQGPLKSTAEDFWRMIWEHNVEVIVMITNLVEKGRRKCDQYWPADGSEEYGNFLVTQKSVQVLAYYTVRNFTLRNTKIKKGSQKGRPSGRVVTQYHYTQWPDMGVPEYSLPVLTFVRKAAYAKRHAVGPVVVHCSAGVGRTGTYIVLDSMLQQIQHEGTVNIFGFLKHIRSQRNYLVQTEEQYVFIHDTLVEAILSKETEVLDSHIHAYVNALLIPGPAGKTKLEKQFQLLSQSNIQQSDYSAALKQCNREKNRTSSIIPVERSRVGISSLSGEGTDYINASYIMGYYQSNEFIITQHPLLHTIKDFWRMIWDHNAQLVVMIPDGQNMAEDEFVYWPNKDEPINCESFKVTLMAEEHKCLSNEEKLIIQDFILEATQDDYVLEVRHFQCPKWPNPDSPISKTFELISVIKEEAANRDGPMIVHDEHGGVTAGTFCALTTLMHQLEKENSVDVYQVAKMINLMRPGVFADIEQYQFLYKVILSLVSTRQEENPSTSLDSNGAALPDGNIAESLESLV
# measurement_notes: In vitro PTPase assay (DiFMUP), PTPRZ1 whole intracellular region
# settings: whole intracellular region; DiFMUP; 60-min preincubation; read-out: IC50 hPTPRZ1 (D1+D2)
quantity_measured: pIC50
Answers are plain numbers, as −log10 of the molar value.

Incoming: What value of pIC50 has been recorded for this entry: CCOc1ccc(C(F)(F)F)cc1CSc1ccsc1C(=O)NS(=O)(=O)c1ccccc1 [NAZ2329]
Outgoing: 5.12

====

# target_of_assay: hPTPRZ1 (D1) (Homo sapiens, UniProt P23471)
# Construct: human PTPRZ1-D1 (amino acid residues, 1,698-2,000)
# Sequence (P23471 1698-2000 limits assumed): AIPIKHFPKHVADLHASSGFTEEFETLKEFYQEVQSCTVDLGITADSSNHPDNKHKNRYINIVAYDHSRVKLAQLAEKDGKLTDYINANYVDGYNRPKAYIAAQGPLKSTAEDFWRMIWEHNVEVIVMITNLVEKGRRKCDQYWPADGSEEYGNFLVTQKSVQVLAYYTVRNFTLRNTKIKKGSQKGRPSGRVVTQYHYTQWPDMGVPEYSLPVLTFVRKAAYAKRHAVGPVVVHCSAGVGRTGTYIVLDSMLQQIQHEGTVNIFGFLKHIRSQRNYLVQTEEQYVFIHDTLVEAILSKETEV
# measurement_notes: In vitro PTPase assay (DiFMUP), PTPRZ1 D1 domain
# settings: first PTP domain fragment
quantity_measured: pIC50
Give bare numbers, as −log10 of the molar value.

Incoming: What value of pIC50 has been recorded for this entry: CCOc1ccc(C(F)(F)F)cc1CSc1ccsc1C(=O)NS(=O)(=O)c1ccccc1
Outgoing: 5.96

====

# target_of_assay: hPTPN1 (Homo sapiens)
# Construct: the catalytic domains of PTPN1 and PTPN6 were expressed as glutathione-S-transferase (GST) fusion proteins; GST (N)
# Sequence (P18031 3-277 limits assumed): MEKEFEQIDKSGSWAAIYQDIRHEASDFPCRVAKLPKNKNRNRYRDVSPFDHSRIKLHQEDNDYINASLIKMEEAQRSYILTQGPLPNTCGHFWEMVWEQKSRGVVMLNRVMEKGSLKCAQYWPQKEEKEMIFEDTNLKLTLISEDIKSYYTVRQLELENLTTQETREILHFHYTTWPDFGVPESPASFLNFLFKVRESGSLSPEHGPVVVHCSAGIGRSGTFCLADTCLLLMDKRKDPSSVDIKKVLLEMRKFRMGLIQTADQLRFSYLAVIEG
# measurement_notes: In vitro PTPase assay (DiFMUP), PTPN1
# settings: 60-min preincubation
quantity_measured: IC50 (µM)
One number for each entry, in µM.

Incoming: What value of IC50 has been recorded for this entry: CCOc1ccc(C(F)(F)F)cc1CSc1ccsc1C(=O)NS(=O)(=O)c1ccccc1
Outgoing: 14.5
